tgt: αvβ1 (Homo sapiens, UniProt P05556+P06756)
Sequence (P06756 31-992 limits assumed): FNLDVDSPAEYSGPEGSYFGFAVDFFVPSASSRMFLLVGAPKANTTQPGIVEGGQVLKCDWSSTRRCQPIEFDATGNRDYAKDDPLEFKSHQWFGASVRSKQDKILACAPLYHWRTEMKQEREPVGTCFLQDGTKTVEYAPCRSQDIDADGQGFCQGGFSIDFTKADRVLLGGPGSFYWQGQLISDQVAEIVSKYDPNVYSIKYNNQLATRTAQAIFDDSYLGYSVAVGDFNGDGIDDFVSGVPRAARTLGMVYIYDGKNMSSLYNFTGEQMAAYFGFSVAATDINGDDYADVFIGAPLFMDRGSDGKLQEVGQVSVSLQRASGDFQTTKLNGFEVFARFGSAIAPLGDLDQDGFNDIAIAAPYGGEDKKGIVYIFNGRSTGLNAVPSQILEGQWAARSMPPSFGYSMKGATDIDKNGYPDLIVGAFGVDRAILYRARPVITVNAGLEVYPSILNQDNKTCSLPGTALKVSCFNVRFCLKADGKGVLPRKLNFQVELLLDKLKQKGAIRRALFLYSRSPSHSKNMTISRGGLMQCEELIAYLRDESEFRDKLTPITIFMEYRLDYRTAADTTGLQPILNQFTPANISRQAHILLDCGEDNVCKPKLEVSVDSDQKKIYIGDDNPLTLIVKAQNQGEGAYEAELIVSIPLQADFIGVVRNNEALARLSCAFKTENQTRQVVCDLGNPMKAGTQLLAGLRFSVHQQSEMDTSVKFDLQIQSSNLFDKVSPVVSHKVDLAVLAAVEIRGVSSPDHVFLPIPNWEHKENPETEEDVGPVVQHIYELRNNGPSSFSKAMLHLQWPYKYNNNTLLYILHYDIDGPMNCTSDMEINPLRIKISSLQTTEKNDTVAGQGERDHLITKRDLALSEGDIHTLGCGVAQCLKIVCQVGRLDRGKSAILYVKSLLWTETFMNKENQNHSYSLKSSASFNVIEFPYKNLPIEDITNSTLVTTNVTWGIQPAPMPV
Sequence (P05556 21-728 limits assumed): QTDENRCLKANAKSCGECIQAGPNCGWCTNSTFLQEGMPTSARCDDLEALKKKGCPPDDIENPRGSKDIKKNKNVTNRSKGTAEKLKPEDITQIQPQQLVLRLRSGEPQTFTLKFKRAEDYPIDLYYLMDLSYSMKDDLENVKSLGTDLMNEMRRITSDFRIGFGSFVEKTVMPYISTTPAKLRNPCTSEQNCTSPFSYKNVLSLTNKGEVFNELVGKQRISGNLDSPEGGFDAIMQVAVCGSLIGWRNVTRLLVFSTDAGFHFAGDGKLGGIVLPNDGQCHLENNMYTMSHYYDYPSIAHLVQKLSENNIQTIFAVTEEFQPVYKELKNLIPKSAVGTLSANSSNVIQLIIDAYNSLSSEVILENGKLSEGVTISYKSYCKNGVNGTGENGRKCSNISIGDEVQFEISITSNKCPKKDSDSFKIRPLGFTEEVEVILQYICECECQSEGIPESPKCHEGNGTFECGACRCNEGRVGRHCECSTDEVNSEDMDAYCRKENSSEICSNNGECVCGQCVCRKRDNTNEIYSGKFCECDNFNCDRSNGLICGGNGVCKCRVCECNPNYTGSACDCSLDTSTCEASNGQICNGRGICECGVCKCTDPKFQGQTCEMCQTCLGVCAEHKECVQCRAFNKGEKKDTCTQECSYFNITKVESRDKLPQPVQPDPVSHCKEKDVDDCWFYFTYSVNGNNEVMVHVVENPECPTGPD
test.protocol: Solid Phase Integrin αvβ1 Assay
Structures can show the parent of a compound that is named as a salt.
quantity.measured: IC50

compound	IC50
O=C(O)C[C@H](NC(=O)[C@@H]1CCCN(CCCc2ccc3c(n2)NCCC3)C1)c1cccc(C2CC2)c1F	> 1000 nM
O=C(O)C[C@@H](NC(=O)[C@@H]1CCCN(CCCc2ccc3c(n2)NCCC3)C1)c1cccc(C(F)(F)F)c1 (single isomer, unassigned) [Compound 203-B, hydrochloride]	< 100 nM
O=C(O)C[C@@H](NC(=O)[C@@H]1CCCN(CCCc2ccc3c(n2)NCCC3)C1)c1ccc2ccccc2c1 [Compound 206, hydrochloride]	< 100 nM
O=C(NC[C@@H](C(=O)O)c1cccc(Oc2ccccc2)c1)[C@@H]1CCCN(CCCc2ccc3c(n2)NCCC3)C1	100 to 1000 nM
CC1(C)CCCN(c2cccc([C@@H](CNC(=O)[C@@H]3CCCN(CCCc4ccc5c(n4)NCCC5)C3)C(=O)O)c2)C1	< 100 nM

Could you now consider this next compound?
Hi! What's the reported IC50 for Cc1cc(C)n(-c2cccc([C@H](CC(=O)O)NC(=O)[C@@H]3CCCN(CCCc4ccc5c(n4)NCCC5)C3)c2)n1 [Compound 225, hydrochloride] on αvβ1 (Homo sapiens, UniProt P05556+P06756)? < 100 nM

###

tgt: αvβ1 (Homo sapiens, UniProt P05556+P06756)
test.protocol: Solid Phase Integrin αvβ1 Assay
pIC50: −log10 of the molar value.
Recorded measurements of pIC50, one per entry

> print(dat)
                                   compound      observed
1  O=C(O)C[C@@H](CC(=O)N[C@@H]1CCN(C(=O)CCCc2ccc3c(n2)NCCC3)C1)c1ccccc1        > 7.00
2  O=C(O)CC(CO[C@@H]1CCCN(CCc2ccc3c(n2)NCCC3)C1)c1ccccc1 (stereo partly shown)  6.00 to 7.00
3  O=C(O)[C@H](CCO[C@@H]1CCCN(CCCc2ccc3c(n2)NCCC3)C1)c1cccc2c1cnn2CC1CC1        < 6.00
4  O=C(NC[C@@H](C(=O)O)c1cccc(-c2ccccc2C(F)(F)F)c1)[C@@H]1CCCN(CCCc2ccc3c(n2)NCCC3)C1        < 6.00
5  CN1CCc2ccc(S(=O)(=O)N[C@@H](CNC(=O)[C@@H]3CCCN(CCCc4ccc5c(n4)NCCC5)C3)C(=O)O)cc21        > 7.00
6  O=C(O)CC(NC(=O)[C@@H]1CCCN(CCCc2ccc3c(n2)NCCC3)C1)c1cc(C(F)(F)F)cc(C(F)(F)F)c1 (stereo partly shown)        > 7.00

May I ask what pIC50 has been recorded for O=C(O)C[C@H](CO[C@H]1CCCN(CCCc2ccc3c(n2)NCCC3)C1)c1ccccc1 ? 6.00 to 7.00

###

Recorded measurements of IC50, one per entry
tgt: αvβ1 (Homo sapiens, UniProt P05556+P06756)
test.protocol: Solid Phase Integrin αvβ1 Assay

> print(dat)
                                   molecule  quantity.measured   observed
1  C[C@H]1C[C@@H](C(=O)NC[C@H](C(=O)O)c2ccc3ccccc3c2)CN(CCCc2ccc3c(n2)NCCC3)C1 [Compound 633]               IC50   < 100 nM
2  O=C(O)[C@@H](CO[C@@H]1CCCN(CCCc2ccc3c(n2)NCCC3)C1)NC(=O)C12CCC(CC1)CC2 [Compound 382]               IC50  > 1000 nM
3  O=C(N[C@H](CCO[C@@H]1CCCN(CCCc2ccc3c(n2)NCCC3)C1)C(=O)O)c1cc(Cl)cc(Cl)c1 [Compound 496]               IC50  > 1000 nM
4  O=C(O)C[C@@H](CO[C@@H]1CCCN(CCCCc2ccc3c(n2)NCCC3)C1)c1ccccc1 [Compound 358]               IC50   < 100 nM
5  CC1(C)CCN(c2cccc([C@H](CC(=O)O)NC(=O)[C@@H]3CCCN(CCCc4ccc5c(n4)NCCC5)C3)c2)CC1 [Compound 237]               IC50   < 100 nM

May I ask what IC50 has been recorded for O=C(O)C[C@H](NC(=O)[C@@H]1CCCN(CCc2ccc3c(n2)NCCC3)C1)c1ccccc1 [Compound 290] ? > 1000 nM

May I ask what IC50 has been recorded for O=C(O)[C@H](CCO[C@@H]1CCCN(CCCc2ccc3c(n2)NCCC3)C1)Nc1ncnc2cc(C(F)(F)F)ccc12 [Compound 475] ? > 1000 nM
